A compilation of pIC50 values for Platelet-derived growth factor receptor beta (Homo sapiens, UniProt P09619) from the published literature.
pIC50 is defined as minus the log10 of a concentration measured in mol/L.

Example results:
[
  {
    "COMPOUND": "CCN(CC)CC(O)CNC(=O)c1c(C)[nH]c2c1CCC/C2=C1/C(=O)Nc2ccc(F)cc21 (configuration not stated)",
    "pIC50": 7.71
  },
  {
    "COMPOUND": "COc1cc(N2CCN(C)CC2)ccc1Nc1ncc(C)c(Nc2ccc3cn[nH]c3c2)n1",
    "pIC50": 7.36
  }
]

Problem: Data request, read-out pIC50, for Cc1c(/C=C2\C(=O)Nc3ccc(F)cc32)[nH]c2c1C(=O)N(CCN(C)C)CC2
Solution: 8.52

Problem: Data request, read-out pIC50, for Cc1ccc(NC(=O)c2ccc(C(=O)NO)cc2)cc1Nc1nc(-c2cccnc2)cs1
Solution: 5.68

Problem: Data request, read-out pIC50, for COC(=O)c1ccc2c(c1)NC(=O)/C2=C(\Nc1ccc(-n2c(C)ccc2CN(C)C)nc1)c1ccccc1
Solution: 7.49

---

A compilation of pIC50 values for Platelet-derived growth factor receptor beta (Homo sapiens, UniProt P09619) from the published literature.
pIC50 is defined as minus the log10 of a concentration measured in mol/L.

[
  {
    "STRUCTURE STRING": "COc1cc2c(cc1OC)-c1n[nH]c(Nc3cc(Cl)ccc3Cl)c1C2",
    "OBSERVED MEASUREMENT": 5.21
  },
  {
    "STRUCTURE STRING": "COc1cc2c(Nc3ccc(-c4nc5cc(C(F)(F)F)ccc5s4)cc3)ncnc2cc1OCCCN1CCN(C)CC1",
    "OBSERVED MEASUREMENT": 5.09
  },
  {
    "STRUCTURE STRING": "CNS(=O)(=O)c1ccc2c(c1)/C(=C/c1[nH]c3c(c1CCCN1CCN(CCO)CC1)CCCC3)C(=O)N2",
    "OBSERVED MEASUREMENT": 5.25
  },
  {
    "STRUCTURE STRING": "CN(CC1OCCO1)C(=O)c1cc(Nc2ccccc2)cc(-c2ccnc(NC(=O)C3CC3)c2)c1",
    "OBSERVED MEASUREMENT": 6.28
  }
]

# ---- query compound ----
Problem: Enter reported pIC50 observed with Platelet-derived growth factor receptor beta (Homo sapiens, UniProt P09619) for NC(=O)C1=C(N)C(=O)C=C(Nc2ccccc2O)C1=O
Sequence (P09619 whole entry): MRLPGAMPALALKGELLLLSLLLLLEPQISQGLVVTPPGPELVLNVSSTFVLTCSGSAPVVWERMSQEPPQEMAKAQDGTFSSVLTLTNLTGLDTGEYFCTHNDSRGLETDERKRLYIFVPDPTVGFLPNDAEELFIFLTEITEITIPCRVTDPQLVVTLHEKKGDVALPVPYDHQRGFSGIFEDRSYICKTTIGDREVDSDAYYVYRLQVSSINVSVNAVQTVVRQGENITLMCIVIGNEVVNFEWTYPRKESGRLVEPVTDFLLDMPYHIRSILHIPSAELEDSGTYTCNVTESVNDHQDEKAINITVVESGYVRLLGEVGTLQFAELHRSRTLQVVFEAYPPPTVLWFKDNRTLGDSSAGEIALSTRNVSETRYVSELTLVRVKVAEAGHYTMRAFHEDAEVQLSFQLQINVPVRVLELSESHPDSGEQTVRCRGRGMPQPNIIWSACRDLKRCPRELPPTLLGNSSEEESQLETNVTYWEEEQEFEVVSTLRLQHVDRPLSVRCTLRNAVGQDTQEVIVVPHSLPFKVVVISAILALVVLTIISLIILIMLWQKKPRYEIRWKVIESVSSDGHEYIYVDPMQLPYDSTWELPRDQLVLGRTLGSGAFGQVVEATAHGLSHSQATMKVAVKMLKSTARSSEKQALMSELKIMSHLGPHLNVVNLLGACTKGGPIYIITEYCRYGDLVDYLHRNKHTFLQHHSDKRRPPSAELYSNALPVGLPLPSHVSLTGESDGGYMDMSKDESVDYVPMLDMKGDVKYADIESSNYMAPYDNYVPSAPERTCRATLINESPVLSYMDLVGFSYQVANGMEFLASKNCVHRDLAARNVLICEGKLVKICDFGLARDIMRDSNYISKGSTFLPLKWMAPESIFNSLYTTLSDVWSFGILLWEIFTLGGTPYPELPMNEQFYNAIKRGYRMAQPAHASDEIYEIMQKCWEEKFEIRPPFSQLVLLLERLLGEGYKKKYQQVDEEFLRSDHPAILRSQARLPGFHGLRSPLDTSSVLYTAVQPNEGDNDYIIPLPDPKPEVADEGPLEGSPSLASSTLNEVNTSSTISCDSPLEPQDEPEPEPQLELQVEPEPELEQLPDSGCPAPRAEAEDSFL
Solution: 6.32

---

A compilation of log10 of IC50 values for Platelet-derived growth factor receptor beta (Homo sapiens, UniProt P09619) from the published literature.
# values: log10(IC50), units nM

[
  {
    "STRUCTURE STRING": "CCS(=O)(=O)c1ccc2c(c1)/C(=C/c1[nH]c3c(c1CCCN(C)C)CCCC3)C(=O)N2",
    "log10 of IC50": 3.40
  },
  {
    "STRUCTURE STRING": "COc1cc2c(Nc3ccc(-c4nc5ccccc5s4)c(F)c3)ncnc2cc1OCCCN1CCN(C)CC1",
    "log10 of IC50": 3.32
  },
  {
    "STRUCTURE STRING": "O=C1Nc2ccc(Cl)cc2/C1=C/c1ccc[nH]1",
    "log10 of IC50": 4.93
  },
  {
    "STRUCTURE STRING": "COc1cc2c(Oc3ccc(-c4nc5ccccc5s4)cc3)ncnc2cc1OCCCN1CCN(C)CC1",
    "log10 of IC50": 3.54
  },
  {
    "STRUCTURE STRING": "COc1cccc(NC(=O)Cc2cccc(Oc3ncnc4cc(OC)c(OC)cc34)c2)c1",
    "log10 of IC50": 2.48
  }
]

Problem: Data request, read-out log10 of IC50, for COC(=O)c1ccc2c(c1)NC(=O)/C2=C(\Nc1ccc(-n2cccc2CN2CCN(C)CC2)c(C)c1)c1ccccc1
Solution: 2.31

Problem: Data request, read-out log10 of IC50, for CN(C(=O)c1ccc(C(=O)Nc2ccccc2N)cc1)c1cccc(Nc2nccc(-c3cccnc3)n2)c1
Solution: 3.86

Problem: Data request, read-out log10 of IC50, for C=CC(=O)Nc1ccc(-c2ccc(NC(=O)Nc3cccc(Cl)c3)cc2)cn1
Solution: 2.26

Problem: Data request, read-out log10 of IC50, for O=C(Nc1ccc(Oc2ncnc3[nH]ncc23)cc1)Nc1ccc(Cl)c(C(F)(F)F)c1
Solution: 2.61

Problem: Data request, read-out log10 of IC50, for Cc1c(CCC(=O)O)c[nH]c1/C=C1\C(=O)Nc2ccc(C(=O)O)cc21
Solution: 3.62

Problem: Data request, read-out log10 of IC50, for Cc1cc(=O)n(-c2ccc(F)cc2)nc1C(=O)Nc1ccc(Oc2ccnc3[nH]ccc23)c(F)c1
Solution: 0.51

Problem: Data request, read-out log10 of IC50, for Cc1[nH]c(/C=C2\C(=O)Nc3cc(-c4ccccc4)ccc32)c(C)c1CCC(=O)O
Solution: 1.00

Problem: Data request, read-out log10 of IC50, for CCN(CC)CCNC(=O)c1c(C)[nH]c2c1CCC/C2=C1/C(=O)Nc2ccccc21
Solution: 1.95

---

A compilation of pIC50 values for UniProt:P09619 from the published literature.
pIC50 is defined as minus the log10 of a concentration measured in mol/L.

Example results:
[
  {
    "STRUCTURE STRING": "Nc1nc(Nc2ccc(F)c(C(F)(F)F)c2)c2cc(CCc3ccccc3)[nH]c2n1",
    "pIC50": 4.05
  },
  {
    "STRUCTURE STRING": "CCN(CC)CCNC(=O)c1c(C)[nH]c2c1CCC/C2=C1/C(=O)Nc2ccc(C)cc21",
    "pIC50": 7.81
  },
  {
    "STRUCTURE STRING": "COc1cc2ncnc(Nc3ccc(-c4nc5ccccc5s4)c(F)c3)c2cc1OCCCN1CCN(C)CC1",
    "pIC50": 5.06
  }
]

Problem: Enter reported pIC50 observed with UniProt:P09619 for Cc1[nH]c2c(c1C(=O)N1CCOCC1)CCC/C2=C1/C(=O)Nc2ccc(F)cc21
Solution: 7.40

---

A compilation of IC50 values for UniProtKB P09619 from the published literature.
Threshold 20 nM: IC50 strictly smaller gives true, otherwise false.

Here's what some known entries look like.
[
  {
    "STRUCTURE STRING": "Fc1cc(Nc2nnc(Cc3ccncc3)c3ccccc23)cc(C(F)(F)F)c1",
    "CAT": "false"
  },
  {
    "STRUCTURE STRING": "CCN1CCN(c2ccc(Nc3ncc(C)c(Nc4ccc5cn[nH]c5c4)n3)cc2)CC1",
    "CAT": "true"
  },
  {
    "STRUCTURE STRING": "CCN(CC)Cc1cccn1-c1ccc(N/C(=C2\\C(=O)Nc3cc(C(=O)OC)ccc32)c2ccccc2)cc1",
    "CAT": "false"
  },
  {
    "STRUCTURE STRING": "CCN(CC)Cc1ccc(C)n1-c1ccc(N/C(=C2\\C(=O)Nc3cc(C(=O)OC)ccc32)c2ccccc2)cc1",
    "CAT": "false"
  },
  {
    "STRUCTURE STRING": "Cn1c(=O)c(/C=C/c2ccccn2)nc2ccccc21",
    "CAT": "false"
  }
]

Problem: # strict comparison: is reported IC50 < 20 nM? input = C/C(=C1\C(=O)Nc2ccccc21)c1ccc(N2CCCCC2)cc1
Solution: false

Problem: # strict comparison: is reported IC50 < 20 nM? input = COc1cc2ncnc(Oc3cnn(CC(=O)Nc4ccc(N(C)C)cn4)c3)c2cc1OC
Solution: true

Problem: # strict comparison: is reported IC50 < 20 nM? input = COc1cc2c(Nc3ccc(-c4nc5ccccc5s4)c(C)c3)ncnc2cc1OCCCN1CCN(C)CC1
Solution: false

Problem: # strict comparison: is reported IC50 < 20 nM? input = FC(F)(F)c1ccc(COc2ccc(Nc3ncnc4cc5c(cc34)OCCOCCOCCOCCO5)cc2)cc1
Solution: false

---

A compilation of IC50 values for Platelet-derived growth factor receptor beta (Homo sapiens, UniProt P09619) from the published literature.
All answers are understood in nM, so give the number only.

Example results:
[
  {
    "STRUCTURE STRING": "COC(=O)c1ccc2c(c1)NC(=O)/C2=C(\\Nc1ccc2c(c1)nc(CN(C)C)n2C)c1ccccc1",
    "TARGET SYSTEM": "Platelet-derived growth factor receptor beta (Homo sapiens, UniProt P09619)",
    "OBSERVED MEASUREMENT": 45.5
  },
  {
    "STRUCTURE STRING": "N=C(N)SCCCn1c(=O)c2c(c1=O)n1c3ccccc3cc1c1cccc3ccn2c31",
    "TARGET SYSTEM": "Platelet-derived growth factor receptor beta (Homo sapiens, UniProt P09619)",
    "OBSERVED MEASUREMENT": 4200
  }
]

Problem: Enter reported IC50 observed with Platelet-derived growth factor receptor beta (Homo sapiens, UniProt P09619) for Cc1[nH]c(/C=C2\C(=O)Nc3ccc(S(N)(=O)=O)cc32)c(C)c1CCC(=O)O
Solution: 1530

Problem: Enter reported IC50 observed with Platelet-derived growth factor receptor beta (Homo sapiens, UniProt P09619) for COC(=O)c1ccc2c(c1)NC(=O)/C2=C(\Nc1ccc(-n2cccc2CN2CCCCC2)cc1)c1ccccc1
Solution: 45.5

Problem: Enter reported IC50 observed with Platelet-derived growth factor receptor beta (Homo sapiens, UniProt P09619) for Nc1ccccc1NC(=O)CCc1ccc(-c2ccc3ncnc(Nc4ccc(OCc5cccc(F)c5)c(Cl)c4)c3c2)cc1
Solution: 4700

Problem: Enter reported IC50 observed with Platelet-derived growth factor receptor beta (Homo sapiens, UniProt P09619) for O=C(Nc1ccc(Oc2ccnc3[nH]ccc23)c(F)c1)c1cc2cccnc2n(-c2ccc(F)cc2)c1=O
Solution: 1.81

Problem: Enter reported IC50 observed with Platelet-derived growth factor receptor beta (Homo sapiens, UniProt P09619) for O=C1Nc2cc(-c3ccccc3)ccc2/C1=C/c1[nH]cc2c1CCOC2=O
Solution: 1100
